- protocol notes: chemical genetic growth profiling, strain panel (AID 1159580);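 also: tested at 20 µM; growth read once vehicle control cultures reached saturation at 30 °C; 1 = growth at the plate median or of vehicle wells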
- run parameters: S. cerevisiae deletion strains, growth OD, locus YJL187C, strain SWE1 (second series), stronger effect = lower value
Among all 5,500 compounds or so, about 2,000 (36%) were called active. Roughly 18% stayed inconclusive and do not appear here. Some of the results follow.
Lab note: compare normalized growth with 1, writing true if less and false if equal or more.

Some solved entries appear below for comparison.
{"compound": "COC(=O)NC(=S)Nc1ccccc1NC(=S)NC(=O)OC", "class name": "false"}
{"compound": "COC(=O)CC1C(C)(C)C(OC(C)=O)[C@@H]2[C@@H](OC(C)=O)[C@]34O[C@@]2(O)[C@]1(C)C3CC[C@]1(C)C4=CC(=O)O[C@H]1c1ccoc1 (stereo not given in full)", "class name": "false"}
{"compound": "CCn1nc(C(=O)O)c(=O)c2cc3c(cc21)OCO3", "class name": "false"}

State whether 1 exceeds normalized growth recorded for O=C(CCCN1CCC2(CC1)C(=O)NCN2c1ccccc1)c1ccc(F)cc1 .
true

---

- protocol notes: chemical genetic growth profiling, strain panel (AID 1159580)
- run parameters: S. cerevisiae deletion strains, growth OD, locus YBR279W, strain paf1, stronger effect = lower value
Out of some 5,500 compounds screened, about 2,000 (36%) were called active. Another 18% or so got no clear call; they are omitted. This is one part of the list.
quantity: normalized growth
Reply with the value as a number alone.

{"compound": "CC[C@@]1(O)C(=O)OCc2c1cc1n(c2=O)Cc2cc3cc(O)ccc3nc2-1", "normalized growth": 1.03}
{"compound": "CC1=C2C(O)C(=O)OC3CC4C(C)(C)C(=O)C=C[C@]4(C)C(CC1)[C@]23C (stereo not given in full)", "normalized growth": 1}
{"compound": "CC[C@@]1(O)C(=O)OCc2c1cc1n(c2=O)Cc2cc3ccccc3nc2-1", "normalized growth": 0.98}
{"compound": "O=c1c(O)cc([C@H]2Oc3cc(O)cc(O)c3C[C@H]2O)cc2c([C@H]3Oc4cc(O)cc(O)c4C[C@H]3O)cc(O)c(O)c12", "normalized growth": 1.02}

Could you now look at the following compound, please?
Need normalized growth, item O=S(=O)(O)O
0.985

---

// normalized growth lookup, one value per entry
- protocol notes: chemical genetic growth profiling, strain panel (AID 1159580)
- run parameters: S. cerevisiae deletion strains, growth OD, locus YPL240C, strain hsp82, stronger effect = lower value
The whole screen tested about 5,500 compounds, of which about 2,000 (36%) were called active. Another 18% or so got no clear call; they are omitted. The list shows a part of the results.
Keep it simple and answer with nothing but the number.

Known results for molecules:
{"molecule": "CC1(C)C(O)CC(=O)C2(C)C1CC(O)C1(C)C2CCC2(C)C(c3ccoc3)OC(=O)C3OC321 (stereo unspecified)", "normalized growth": 1.01}
{"molecule": "CCc1ccc2c(O)c3c(cc2c1C(=O)OC)C(=O)c1c(O)ccc(O)c1C3=O", "normalized growth": 0.983}
{"molecule": "C[C@@H]1CC[C@@]23CCC4(C)[C@@](C=CC5[C@@]6(C)CC[C@H](O)C(C)(C)C6CC[C@]54C)(OC2=O)C3[C@H]1C (stereo partly specified)", "normalized growth": 1}
{"molecule": "CC1(C)C(=O)CC[C@@]2(C)C1C[C@@H](O)[C@@]1(C)C3=CC(=O)O[C@@H](c4ccoc4)[C@]3(C)CCC21 (stereo partly specified)", "normalized growth": 1.01}
{"molecule": "Cc1c(OCC(F)(F)F)ccnc1CS(=O)c1nc2ccccc2[nH]1 (stereo unspecified)", "normalized growth": 1.02}

Reported normalized growth, molecule NC[C@H]1O[C@H](O[C@H]2[C@H](O)[C@@H](O[C@H]3O[C@H](CO)[C@@H](O)[C@H](N)[C@H]3O)[C@H](N)C[C@@H]2N)[C@H](N)[C@@H](O)[C@@H]1O : ____
0.988

Could you do the same for NCC(O)CC(=O)O (stereo unspecified) , please?
1

What would you report for COC(=O)N/N=C\c1c[n+]([O-])c2ccccc2[n+]1[O-] ?
0.991

Next record, please: NC[C@@H]1O[C@H](O[C@@H]2[C@@H](CO)OC(O[C@@H]3[C@@H](O)[C@H](N)C[C@H](N)[C@H]3O[C@H]3O[C@H](CO)[C@@H](O)[C@H](O)[C@H]3N)[C@@H]2O)[C@H](N)[C@@H](O)[C@@H]1O (stereo partly specified)
0.997

Subsequent entry: Nc1ccc(S(=O)(=O)Nc2ncccn2)cc1
0.99

Same again, this time with CC1(C)O[C@@H]2CC3C4C[C@H](F)C5=CC(=O)CC[C@]5(C)C4[C@@H](O)C[C@]3(C)[C@]2(C(=O)CO)O1 (stereo partly specified)
1

Now this one: C[C@@H]1CC[C@@]23CCC4(C)[C@@](C=CC5[C@@]6(C)CCC(=O)C(C)(C)C6CC[C@]54C)(OC2=O)C3[C@H]1C (stereo partly specified)
0.996

Item: O=c1c(O)cc([C@H]2Oc3cc(O)cc(O)c3C[C@H]2O)cc2c([C@H]3Oc4cc(O)cc(O)c4C[C@H]3O)cc(O)c(O)c12
1.04

How about CC(C)C[C@@H](NC(=O)OCC1c2ccccc2-c2ccccc21)C(=O)O ?
1.01

Please do the same for Oc1ccc([C@H]2Oc3cc(O)cc(O)c3C[C@H]2O)cc1 as well.
0.989

Okay, and CC(=O)O[C@@H]1CC2C(C)(CC[C@H](O)C2(C)C)C2CC[C@]3(C)C(=CC(=O)O[C@H]3c3ccoc3)C21C (stereo partly specified) ?
1

---

- protocol notes: chemical genetic growth profiling, strain panel (AID 1159580);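 also: tested at 20 µM; growth read once vehicle control cultures reached saturation at 30 °C; 1 = growth at the plate median or of vehicle wells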
- run parameters: S. cerevisiae deletion strains, growth OD, locus YDL108W, strain KIN28, stronger effect = lower value
About 2,000 (36%) of roughly 5,500 compounds were called active. Inconclusive results (about 18%) are left out. The list shows a part of the results.
quantity: normalized growth
Write no unit; give the number alone.

Quick one: normalized growth of CCn1nc(C)cc1C(=O)Sc1cccc(Br)c1 ?
0.93

Try the compound N#Cc1ccc2[nH]cc(CCN(Cc3ccccc3)Cc3ccccc3)c2c1
0.983

Quick one: CO/N=C1/CC(C)(C)Cc2c(-c3ccn(C(=O)Nc4cccc(Cl)c4)n3)sc(SC)c21
0.959

Also need O=C(Nc1ccccc1C(=O)O)OCC1c2ccccc2-c2ccccc21 , thanks.
0.984

And then O=C1/C(=C/c2c[nH]c3ccccc23)CSc2ccccc21 , what is it?
0.987

Param item: Cc1ccc(Sc2ncccc2NS(=O)(=O)c2ccc(Cl)cc2)cc1
0.919

---

- protocol notes: chemical genetic growth profiling, strain panel (AID 1159580);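 also: tested at 20 µM; growth read once vehicle control cultures reached saturation at 30 °C; 1 = growth at the plate median or of vehicle wells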
- run parameters: S. cerevisiae deletion strains, growth OD, locus YJL164C, strain tpk1, stronger effect = lower value
About 2,000 (36%) of roughly 5,500 compounds were called active. Inconclusive results (about 18%) are left out. Some of the results follow.
quantity: normalized growth
I only need the number, thanks.

Example results:
{"compound": "C[C@@H]1CC[C@@]23CCC4(C)[C@@](C=CC5[C@@]6(C)CCC(=O)C(C)(C)C6CC[C@]54C)(OC2=O)C3[C@H]1C (some centres not stated)", "normalized growth": 1.01}
{"compound": "C[C@@H]1O[C@@H](O[C@H]2CC[C@]3(C=O)C4CC[C@]5(C)[C@@H](C6=CC(=O)OC6)CC[C@]5(O)C4CC[C@]3(O)C2)[C@H](O)[C@H](O)[C@H]1O (some centres not stated)", "normalized growth": 1.01}
{"compound": "O=c1c2cc(O)c(O)cc2oc2cc(O)c(C3O[C@H](CO)[C@H](O)[C@@H](O)[C@H]3O)c(O)c12 (some centres not stated)", "normalized growth": 0.98}

I would be grateful if you could share the reported normalized growth for CC(=O)OC1CC[C@@]2(C)C(CCC3C2CC[C@]2(C)C(C4=CC(=O)OC4)C(OC(C)=O)CC32O)C1 (some centres not stated) .
1

COc1c(O)cc2c(c1O)[C@H]1O[C@H](CO)[C@@H](O)[C@H](O)[C@@H]1OC2=O , same question.
1.02

Also check Cc1c(C(N)=O)cc([N+](=O)[O-])cc1[N+](=O)[O-]
1.06

Please answer likewise for C[C@H]1O[C@@H](O[C@H]2[C@@H](O)C[C@H](O[C@H]3[C@@H](O)C[C@H](O[C@H]4CC[C@]5(C)C6C[C@@H](O)[C@]7(C)[C@@H](C8=CC(=O)OC8)CC[C@]7(O)C6CC[C@@H]5C4)O[C@@H]3C)O[C@@H]2C)C[C@H](O)[C@@H]1O (some centres not stated)
1.02

---

- protocol notes: chemical genetic growth profiling, strain panel (AID 1159580);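 also: tested at 20 µM; growth read once vehicle control cultures reached saturation at 30 °C; 1 = growth at the plate median or of vehicle wells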
- run parameters: S. cerevisiae deletion strains, growth OD, locus YLR418C, strain cdc73, stronger effect = lower value
Among all 5,500 compounds or so, about 2,000 (36%) were called active. Not shown: some 18% with an inconclusive outcome. Some of the results follow.
quantity: normalized growth
When you answer, write just the number.

{"smiles string": "NCCCCN", "meas value": 1.03}
{"smiles string": "COc1cc(C)c2c(=O)c3c(O)cc(OC)cc3oc2c1", "meas value": 0.981}

# evaluate next
Given the compound CC(=O)Oc1ccccc1C(=O)Oc1ccccc1C(=O)O , what is its reported normalized growth?
0.997
